// data source = patent US5583127A

experimental.target: purified Na^+,K^+ -ATPase (Homo sapiens)
measurement.description: inhibition of the activity of the purified Na+,K+-ATPase (% hydrolysis of 32P-ATP)
Assay type: biochemical
measurement.conditions: purified Na+,K+-ATPase; read-out: Inhibitory Activity log IC50 (converted)
assay.metric: IC50 (nM)

INSERT INTO results (compound, experimental_value) VALUES
  ('C[C@]12CC[C@H](O)C[C@H]1CC[C@@H]1[C@@H]2CC[C@]2(C)[C@@H](/C=C/C=N/NC3=NCCCN3)CC[C@]12O [Comp. I-ag]', 1580),
  ('CC(CO[C@H]1CC[C@@]2(C)[C@H](CC[C@@H]3[C@@H]2CC[C@]2(C)[C@@H](/C=C/C=NOCCN(C)C)CC[C@]32O)C1)N1CCCC1 (mixture of isomers) [Comp. I-ca]', 39.8),
  ('C[C@]12CC[C@H](O)C[C@H]1CC[C@@H]1[C@@H]2CC[C@]2(C)[C@@H](/C=C/C=NOCCNC(=N)N)CC[C@]12O (mixture of isomers) [Comp. I-as]', 158);

====

experimental.target: purified Na^+,K^+ -ATPase (Homo sapiens)
measurement.description: inhibition of the activity of the purified Na+,K+-ATPase (% hydrolysis of 32P-ATP)
Format: biochemical
measurement.conditions: purified Na+,K+-ATPase; read-out: Inhibitory Activity log IC50 (converted)
// values below are reported IC50
assay.metric: IC50 (nM)

INSERT INTO results (molecule, assay_metric, unit_spec, experimental_value) VALUES
  ('C[C@]12CC[C@H](O)C[C@H]1CC[C@@H]1[C@@H]2CC[C@]2(C)[C@@H](CC=NOCCN)CC[C@]12O (mixture of isomers)', 'IC50', 'nM', 316),
  ('C[C@]12CC[C@H](O)C[C@H]1CC[C@@H]1[C@@H]2CC[C@]2(C)[C@@H](/C=C/C=N/OCCCN)CC[C@]12O', 'IC50', 'nM', 100),
  ('CN(C)CCON=CC[C@@]1(O)CC[C@]2(O)[C@@H]3CC[C@@H]4C[C@@H](O)CC[C@]4(C)[C@H]3CC[C@]12C (mixture of isomers)', 'IC50', 'nM', 10000);

====

experimental.target: purified Na^+,K^+ -ATPase (Homo sapiens)
measurement.description: inhibition of the activity of the purified Na+,K+-ATPase (% hydrolysis of 32P-ATP)
Type: biochemical
measurement.conditions: read-out: Inhibitory Activity log IC50 (converted)
// values below are reported IC50
assay.metric: IC50 (µM)

INSERT INTO measurements (molecule, experimental_target, assay_metric, experimental_value) VALUES
  ('C[C@]12CC[C@H](O)C[C@H]1CC[C@@H]1[C@@H]2CC[C@]2(C)[C@@H](/C=C/C=C/C=N/NC3=NCCCN3)CC[C@]12O', 'purified Na^+,K^+ -ATPase (Homo sapiens)', 'IC50', 15.8),
  ('CN(C)CCON=CC[C@H]1CC[C@]2(O)[C@@H]3CC[C@@H]4C[C@H](O)CC[C@]4(C)[C@H]3CC[C@]12C (mixture of isomers)', 'purified Na^+,K^+ -ATPase (Homo sapiens)', 'IC50', 1),
  ('C[C@]12CC[C@H](O)C[C@H]1CC[C@@H]1[C@@H]2CC[C@]2(C)[C@@H](CCC=NNC3=NCCN3)CC[C@]12O (mixture of isomers)', 'purified Na^+,K^+ -ATPase (Homo sapiens)', 'IC50', 3.16);

====

experimental.target: Na^+, K^+ -ATPase receptor (Homo sapiens)
measurement.description: displacement of the specific 3H-ouabain binding from the Na+,K+-ATPase receptor
pIC50: −log10 of the molar value.
assay.metric: pIC50

INSERT INTO assay_data (compound, assay_metric, experimental_value) VALUES
  ('C[C@]12CC[C@H](O)C[C@H]1CC[C@@H]1[C@@H]2CC[C@]2(C)[C@@H](/C=C/C=NOCCNC(=N)N)CC[C@]12O (mixture of isomers)', 'pIC50', 7.00),
  ('C[C@]12CC[C@H](O)C[C@H]1CC[C@@H]1[C@@H]2CC[C@]2(C)[C@@H](/C=C/C=N/NC3=NCCN3)CC[C@]12O', 'pIC50', 7.30),
  ('C[C@]12CC[C@H](O)C[C@H]1CC[C@@H]1[C@@H]2CC[C@]2(C)[C@@H](/C=C/C=N\NC3=NCCCN3)CC[C@]12O', 'pIC50', 6.10),
  ('C[C@]12CC[C@H](O)C[C@H]1CC[C@@H]1[C@@H]2CC[C@]2(C)[C@@H](/C=C/C=N\NC3=NCCN3)CC[C@]12O', 'pIC50', 6.20),
  ('CN(C)CCO/N=C/C=C/[C@H]1CC[C@]2(O)[C@@H]3CC[C@@H]4C[C@H](O)CC[C@]4(C)[C@H]3CC[C@]12C', 'pIC50', 7.30),
  ('C[C@]12CC[C@H](O)C[C@H]1CC[C@@H]1[C@@H]2CC[C@]2(C)[C@@H](CC=NOCCCN)CC[C@]12O (mixture of isomers)', 'pIC50', 7.30),
  ('C[C@]12CC[C@H](O)C[C@H]1CC[C@@H]1[C@@H]2CC[C@]2(C)[C@@H](/C=C/C=N/OCCCN)CC[C@]12O', 'pIC50', 7.30),
  ('CN(C)CCON=CC[C@H]1CC[C@]2(O)[C@@H]3CC[C@@H]4C[C@@H](OCCCN5CCCC5)CC[C@]4(C)[C@H]3CC[C@]12C (mixture of isomers)', 'pIC50', 7.30),
  ('CN1CCN=C1N/N=C/C=C/[C@H]1CC[C@]2(O)[C@@H]3CC[C@@H]4C[C@@H](O)CC[C@]4(C)[C@H]3CC[C@]12C', 'pIC50', 6.80),
  ('C[C@]12CC[C@@H](O)C[C@H]1CC[C@@H]1[C@@H]2CC[C@]2(C)[C@@H](/C=C/C=N/NC(=N)N)CC[C@]12O', 'pIC50', 7.30);

====

experimental.target: Na^+, K^+ -ATPase receptor (Homo sapiens)
measurement.description: displacement of the specific 3H-ouabain binding from the Na+,K+-ATPase receptor
measurement.conditions: displacement of specific 3H-ouabain binding; read-out: Binding ^3 H-Ouab. Displacement log IC50 (converted)
assay.metric: IC50 (nM)

INSERT INTO assay_data (compound, experimental_target, unit_spec, experimental_value) VALUES
  ('C[C@]12CC[C@H](O)C[C@H]1CC[C@@H]1[C@@H]2CC[C@]2(C)[C@@H](CCC=NOCCN)CC[C@]12O (mixture of isomers) [Comp. I-bm]', 'Na^+, K^+ -ATPase receptor (Homo sapiens)', 'nM', 25.1),
  ('C[C@]12CC[C@H](O)C[C@H]1CC[C@@H]1[C@@H]2CC[C@]2(C)[C@@H](/C=C/C=N/NC(=N)N)CC[C@]12O [Comp. I-aa]', 'Na^+, K^+ -ATPase receptor (Homo sapiens)', 'nM', 25.1),
  ('CN(C)CCON=C/C=C/[C@H]1CC[C@]2(O)[C@@H]3CC[C@@H]4C[C@@H](OCCCN)CC[C@]4(C)[C@H]3CC[C@]12C (mixture of isomers) [Comp. 1-ce]', 'Na^+, K^+ -ATPase receptor (Homo sapiens)', 'nM', 15.8),
  ('C[C@]12CC[C@H](O)C[C@H]1CC[C@@H]1[C@@H]2CC[C@]2(C)[C@@H](/C=C/C=N/OCCN)CC[C@]12O [Comp. I-ao]', 'Na^+, K^+ -ATPase receptor (Homo sapiens)', 'nM', 15.8),
  ('C[C@]12CC[C@H](OCCN)C[C@H]1CC[C@@H]1[C@@H]2CC[C@]2(C)[C@@H](/C=C/C=NNC(=N)N)CC[C@]12O (mixture of isomers) [Comp. I-cb]', 'Na^+, K^+ -ATPase receptor (Homo sapiens)', 'nM', 20),
  ('C[C@]12CC[C@H](O)C[C@H]1CC[C@@H]1[C@@H]2CC[C@]2(C)[C@@H](/C=C/C=N/NC(=N)Nc3ccccc3)CC[C@]12O [Comp. I-aj]', 'Na^+, K^+ -ATPase receptor (Homo sapiens)', 'nM', 1000),
  ('CN(C)CCON=CC[C@H]1CC[C@]2(O)[C@@H]3CC[C@@H]4C[C@@H](O)CC[C@]4(C)[C@H]3CC[C@]12C (mixture of isomers) [Comp. I-bh]', 'Na^+, K^+ -ATPase receptor (Homo sapiens)', 'nM', 39.8),
  ('C[C@]12CC[C@H](O)C[C@H]1CC[C@@H]1[C@@H]2CC[C@]2(C)[C@@H](/C=C/C=N\NC(=N)N)CC[C@]12O [Comp. I-ab]', 'Na^+, K^+ -ATPase receptor (Homo sapiens)', 'nM', 316),
  ('CN(C)CCON=CCC[C@H]1CC[C@]2(O)[C@@H]3CC[C@@H]4C[C@@H](O)CC[C@]4(C)[C@H]3CC[C@]12C (mixture of isomers) [Comp. I-bn]', 'Na^+, K^+ -ATPase receptor (Homo sapiens)', 'nM', 25.1);
